- assayRemarks: Solubility of PBSA in aqueous solubiliser solutions, dissolved fraction determined by HPLC
- Assay type: physicochemical
- appliedConditions: 4% aqueous creatinine solution, pH 5.7, aqueous with cosolvent or surfactant or cyclodextrin, thermodynamic from solid, pH of the dispersion 5.7 (pH not restored to 4.6), stirred 1 hour, filtered, read-out: Solubility of PBSA in water comprising 4% of creatinine
readoutKind: solubility at 1 h (µg/mL)
All answers are understood in µg/mL, so give the number only.

Qu. Specify measured solubility at 1 h for `O=S(=O)(O)c1ccc2[nH]c(-c3ccccc3)nc2c1` .
Ans. 8500

---

- assayRemarks: Solubility of PBSA in aqueous solubiliser solutions, dissolved fraction determined by HPLC
- Type: physicochemical
- appliedConditions: 4% aqueous pyrrolidonecarboxylic acid solution, pH 4.6, aqueous with cosolvent or surfactant or cyclodextrin, thermodynamic from solid, pH of the dispersion set to 4.6, stirred 1 hour, filtered, read-out: Solubility of PBSA in water comprising 4% of pyrrolidonecarboxylic acid
readoutKind: solubility at 1 h
Don't forget the unit after the value.

Qu. Specify measured solubility at 1 h for O=S(=O)(O)c1ccc2[nH]c(-c3ccccc3)nc2c1 [PBSA, 2-phenylbenzimidazole-5-sulfonic acid] .
Ans. 340 µg/mL

---

- assayRemarks: Solubility of PBSA in aqueous solubiliser solutions, dissolved fraction determined by HPLC
- Type: physicochemical
- appliedConditions: water without solubiliser, pH 4.6, aqueous buffer, thermodynamic from solid, no solubiliser, pH of the dispersion set to 4.6, stirred 1 hour, filtered, read-out: Solubility of PBSA in water
readoutKind: solubility at 1 h (µg/mL)
All answers are understood in µg/mL, so give the number only.

Qu. Specify measured solubility at 1 h for `O=S(=O)(O)c1ccc2[nH]c(-c3ccccc3)nc2c1` .
Ans. 340

---

- assayRemarks: Solubility of PBSA in aqueous solubiliser solutions, dissolved fraction determined by HPLC
- Assay type: physicochemical
- appliedConditions: 4% aqueous ectoine solution, pH 4.6, aqueous with cosolvent or surfactant or cyclodextrin, thermodynamic from solid, pH of the dispersion set to 4.6, stirred 1 hour, filtered, read-out: Solubility of PBSA in water comprising 4% of ectoine
readoutKind: solubility at 1 h (µg/mL)
All answers are understood in µg/mL, so give the number only.

Qu. Specify measured solubility at 1 h for O=S(=O)(O)c1ccc2[nH]c(-c3ccccc3)nc2c1 [PBSA, 2-phenylbenzimidazole-5-sulfonic acid] .
Ans. 600
